- Assay Explanation: Stability in simulated gastric fluid
- Type: in vitro ADME
- Test Parameters: 2 μM, 37° C., pH 1.5, 24 h
Where a SMILES comes first, the peptide text is derived from it. [ ]: non-standard residue; d: D form. ξ: configuration not given here. ξBip(2'-Et-4'-OMe) = CCc1cc(OC)ccc1-c1ccc(CC(N)C(=O)O)cc1; ξαMe(hhPhe) = CC(N)(CCCc1ccccc1)C(=O)O; ξαMeD = CC(N)(CC(=O)O)C(=O)O; ξαMeS = CC(N)(CO)C(=O)O
Parameter: % degradation in 24 h when incubated with simulated gastric fluid (%)
The answer is to be given in %; state only the numeric part.

- Molecule: "CCc1cc(OC)ccc1-c1ccc(CC(NC(=O)C(C)(CC(=O)O)NC(=O)C(C)(CO)NC(=O)[C@@H](NC(=O)[C@H](Cc2ccccc2)NC(=O)[C@@H](NC(=O)CNC(=O)[C@H](CCC(N)=O)NC(=O)[C@H](C)NC(=O)[C@H](Cc2c[nH]cn2)NC(=O)[C@@H](N)C(C)C)[C@@H](C)O)[C@@H](C)O)C(=O)NC(C)(CCCc2ccccc2)C(N)=O)cc1 (some centres unmarked) [compound 108] (H-VHAQGTFT[ξαMeS][ξαMeD][ξBip(2'-Et-4'-OMe)][ξαMe(hhPhe)]-NH2)"
  Display Unit: "%"
  Endpoint Result: "00"

Next up:
Input: Supply recorded % degradation in 24 h when incubated with simulated gastric fluid for CCc1cc(OC)ccc1-c1ccc(CC(NC(=O)C(C)(CC(=O)O)NC(=O)C(C)(CO)NC(=O)[C@@H](NC(=O)[C@H](Cc2ccccc2)NC(=O)[C@@H](NC(=O)CNC(=O)[C@H](CCC(=O)O)NC(=O)[C@H](C)NC(=O)[C@H](Cc2c[nH]cn2)NC(=O)[C@@H](N)C(C)C)[C@@H](C)O)[C@@H](C)O)C(=O)NC(C)(CCCc2ccccc2)C(N)=O)cc1 (some centres unmarked) [compound 112] (H-VHAEGTFT[ξαMeS][ξαMeD][ξBip(2'-Et-4'-OMe)][ξαMe(hhPhe)]-NH2) here.
Output: 100
